TARGET_UNDER_TEST: CDK2/Cyclin E1 (Homo sapiens)
TEST_METHOD_NOTES: CDK2/Cyclin E1 Caliper LabChip EZ Reader mobility shift assay
Type: biochemical
Parameters: purchased Eurofins 14-475
CONDITIONS: read-out: Caliper Assay (CDK2/CCNE1): IC50
READOUT_LABEL: IC50

CNC(=O)[C@@H](NC(=O)[C@H]1CN(C(=O)c2cnc(COC(C)(C)C)s2)CC12CN(C(=O)[C@H]1CC1(C)C)C2)[C@@H](C)OCC1CCCCC1 [I-175B] | 100 to 1000 nM

Enquiry: Look up IC50: CC1(C)C[C@@H]1C(=O)N1CC2(CN(C(=O)c3cnn(Cc4ccccc4)c3)C[C@@H]2C(=O)Nc2ccc(-c3ccccc3)cc2)C1 [I-81B]
Return: 1000 to 10000 nM

Enquiry: Now give it for C[C@@H](NC(=O)[C@H]1CN(C(=O)c2cnn(Cc3ccccc3)c2)CC12CN(C(=O)[C@H]1CC1(C)C)C2)c1cccc(F)c1 [I-128B] too.
Return: > 10000 nM

###

TARGET_UNDER_TEST: CDK2/Cyclin E1 (Homo sapiens, UniProt P24941)
TEST_METHOD_NOTES: CDK2/Cyclin E1 Caliper LabChip EZ Reader mobility shift assay
Type: biochemical
Set-up: purchased Eurofins 14-475
CONDITIONS: read-out: Caliper Assay (CDK2/CCNE1): IC50
pIC50: −log10 of the molar value.
Below, each of the compounds is paired with its reported pIC50 value.

// below: answered compounds
CNC(=O)[C@@H](NC(=O)[C@H]1CN(C(=O)c2cnn(Cc3ccccc3)c2)CC12CN(C(=O)C1(C#N)CC1)C2)[C@@H](C)OCc1ccccc1 [I-73B] | < 5.00
CNC(=O)[C@@H](NC(=O)[C@@H]1CN(C(=O)c2cncs2)CC12CN(Cc1cnco1)C2)[C@@H](C)OCC12CCC(CC1)OC2 [I-350] | < 5.00
C[C@@H](OCC1CCC(F)(F)CC1)[C@@H](COC1CCC(F)(F)CC1)NC(=O)[C@@H]1CN(C(=O)c2cncs2)CC12CN(C(=O)[C@H]1CC1(C)C)C2 [I-315] | ≥ 8.00

Enquiry: What value of measured pIC50 is listed for COC(=O)[C@H](CO)NC(=O)[C@H]1CN(C(=O)c2cnn(Cc3ccccc3)c2)CC12CN(C(=O)[C@H]1CC1(C)C)C2 [I-209B] ?
Return: < 5.00

Enquiry: Another compound to look at: CNC(=O)[C@@H](NC(=O)[C@H]1CN(C(=O)c2ccccn2)CC12CN(C(=O)[C@H]1CC1(C)C)C2)[C@@H](C)OCc1ccccc1 [I-45B]
Return: < 5.00

Enquiry: Record: CNC(=O)[C@@H](NC(=O)[C@@H]1CN(C(=O)c2cnn(Cc3ccccc3)c2)CC12CN(C(=O)[C@H]1CC1(C)C)C2)[C@@H](C)OCC12CC(C(=O)OC)(C1)C2 [I-299]
Return: 7.00 to 8.00

###

TARGET_UNDER_TEST: CDK2/Cyclin E1 (Homo sapiens, UniProt P24941)
TEST_METHOD_NOTES: CDK2/Cyclin E1 Caliper LabChip EZ Reader mobility shift assay
Type: biochemical
Parameters: purchased Eurofins 14-475
CONDITIONS: read-out: Caliper Assay (CDK2/CCNE1): IC50
Listing: IC50 of selected compounds

// known answers, use as guide
CC1(C)C[C@@H]1C(=O)N1CC2(CN(C(=O)c3cnn(Cc4ccccc4)c3)C[C@@H]2C(=O)NCCOCc2ccccc2)C1 [I-96B] | > 10000 nM
CC1(C)C[C@@H]1C(=O)N1CC2(CN(C(=O)c3cnn(Cc4ccccc4)c3)C[C@H]2C(=O)N2CCC(OCc3ccccc3)CC2)C1 [I-214] | 1000 to 10000 nM
C[C@@H](OCC1CCCCC1)[C@H](NC(=O)[C@@H]1CN(C(=O)c2cnn(CC(F)(F)F)c2)CC12CN(C(=O)[C@H]1CC1(C)C)C2)C(=O)N1CCCCC1 [I-132] | 10 to 100 nM
CNC(=O)[C@@H](NC(=O)[C@@H]1CN(C(=O)c2cnn(Cc3ccccc3)c2)CC12CN(C(=O)C(C)(C)C#N)C2)[C@@H](C)OCc1ccccc1 [I-76A] | 1000 to 10000 nM
C[C@@H](OCC1CCC(F)(F)CC1)[C@@H](COC1CCOCC1)NC(=O)[C@@H]1CN(C(=O)c2cncs2)CC12CN(C(=O)[C@H]1CC1(C)C)C2 [I-314] | ≤ 10 nM

Consider the additional compound presented here.
Enquiry: Entry CC1(C)C[C@@H]1C(=O)N1CC2(CN(C(=O)c3cnn(Cc4ccccc4)c3)C[C@H]2C(=O)N[C@H]2CCCN(C(=O)c3ccccc3)C2)C1 [I-83A] : reported IC50 = ?
Return: 1000 to 10000 nM
